Counter-ions that a name gives are not always drawn.
Assign Ki to each entry below.

Report Ki for COc1ccccc1CN1Cc2ccc([N+](=O)[O-])cc2N=C1N [Example 91] tested on 5-HT5A (Homo sapiens, UniProt P47898).
Sequence (P47898 whole entry): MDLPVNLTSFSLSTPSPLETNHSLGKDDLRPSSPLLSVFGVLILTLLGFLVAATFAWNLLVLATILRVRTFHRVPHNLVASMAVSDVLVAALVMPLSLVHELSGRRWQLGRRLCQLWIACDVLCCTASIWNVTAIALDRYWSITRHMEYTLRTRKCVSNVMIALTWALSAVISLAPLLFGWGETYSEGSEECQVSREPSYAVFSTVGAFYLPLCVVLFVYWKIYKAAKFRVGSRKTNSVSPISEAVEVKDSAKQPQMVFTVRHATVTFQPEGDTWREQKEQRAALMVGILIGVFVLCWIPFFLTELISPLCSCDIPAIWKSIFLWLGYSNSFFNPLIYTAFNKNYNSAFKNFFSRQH
< 300 nM

What measured Ki is associated with COc1ccccc1CN1Cc2ccccc2N=C1NC1CCN(Cc2ccccc2)CC1 [Example 96, fumarate] on 5-HT5A (Homo sapiens, UniProt P47898)?
< 10000 nM

Form: Entry = COc1ccccc1CN1Cc2ccccc2N=C1NCc1cccc2ccccc12 [Example 98, hydrochloride] | System = 5-HT5A (Homo sapiens, UniProt P47898) | Ki = ____
< 10000 nM

Provide value of Ki for this record tested with 5-HT5A (Homo sapiens, UniProt P47898): COc1cccc(OC)c1CN1Cc2ccc(Cl)cc2N=C1N [Example 90]
< 300 nM

Query Ki on 5-HT5A (Homo sapiens, UniProt P47898) for COc1cccc(OC)c1CN1Cc2ccc(-c3cccnc3)cc2N=C1N [Example 85, acetate]
< 300 nM

Lab note: need Ki for COc1ccccc1CN1Cc2ccc(C(F)(F)F)cc2N=C1N [Example 66, hydrochloride] on 5-HT5A (Homo sapiens, UniProt P47898), anyone have it?
< 300 nM

Find the measured Ki: item COc1ccccc1CN1Cc2ccccc2N=C1NCCc1ccccc1 [Example 97, hydrochloride] , target or system 5-HT5A (Homo sapiens, UniProt P47898).
< 10000 nM

Query for 5-HT5A (Homo sapiens, UniProt P47898): what Ki does the record show for COc1cc(Cl)ccc1CN1Cc2ccccc2N=C1N [Example 67, hydrochloride] ?
< 300 nM

Report Ki for COc1ccccc1CN1Cc2ccccc2N=C1NC1Cc2ccccc2C1 [Example 74, acetate] tested on 5-HT5A (Homo sapiens, UniProt P47898).
< 300 nM

# value lookup — system 5-HT5A (Homo sapiens, UniProt P47898), readout Ki, item COc1cccc(F)c1Cc1cc2cc(N3CCN(C)CC3)ccc2nc1N [Example 49]
< 300 nM

# query: Ki | item COc1cccc(OC)c1CN1Cc2ccccc2N=C1NC1CCCCCC1 [Example 92, hydrochloride] | system: 5-HT5A (Homo sapiens, UniProt P47898)
< 300 nM

Write down the reported Ki of COc1ccccc1CN1Cc2ccccc2N=C1N1CCNCC1 [Example 78, hydrochloride] , test system: 5-HT5A (Homo sapiens, UniProt P47898).
< 10000 nM

Record CCOc1ccc2nc(N)c(Cc3ccccc3OC)cc2c1 [Example 31] : what is its Ki with 5-HT5A (Homo sapiens, UniProt P47898)?
< 300 nM

Given the entry COc1ccccc1Cc1cc2ccc(F)cc2nc1N [Example 39] , what Ki was observed with 5-HT5A (Homo sapiens, UniProt P47898)?
< 300 nM

Can you look up Ki on 5-HT5A (Homo sapiens, UniProt P47898) for COc1cccc(O)c1Cc1cc2ccccc2nc1N [Example 2] ?
< 300 nM

Item COc1cccc(OC)c1CN1Cc2ccc(-c3cccs3)cc2N=C1N [Example 86, acetate] with 5-HT5A (Homo sapiens, UniProt P47898) - Ki?
< 300 nM

Request - read-out Ki | tested on 5-HT5A (Homo sapiens, UniProt P47898) | compound COc1cccc(CN2Cc3ccccc3N=C2N)c1OC [Example 71, hydrochloride]
< 10000 nM

// lookup Ki | system=5-HT5A (Homo sapiens, UniProt P47898) | key= COc1ccccc1Cc1cc2ccccc2nc1N [Example 1, 3-(2-Methoxybenzyl)quinolin-2-amine]
< 300 nM
